Target: cannabinoid CB1 receptor (Mus musculus, UniProt P47746)
Construct: Whole brains from eight adult male mice were dissected and suspended in centrifugation buffer; from tissue; host or cells: mouse whole brain membranes
Sequence (P47746 whole entry): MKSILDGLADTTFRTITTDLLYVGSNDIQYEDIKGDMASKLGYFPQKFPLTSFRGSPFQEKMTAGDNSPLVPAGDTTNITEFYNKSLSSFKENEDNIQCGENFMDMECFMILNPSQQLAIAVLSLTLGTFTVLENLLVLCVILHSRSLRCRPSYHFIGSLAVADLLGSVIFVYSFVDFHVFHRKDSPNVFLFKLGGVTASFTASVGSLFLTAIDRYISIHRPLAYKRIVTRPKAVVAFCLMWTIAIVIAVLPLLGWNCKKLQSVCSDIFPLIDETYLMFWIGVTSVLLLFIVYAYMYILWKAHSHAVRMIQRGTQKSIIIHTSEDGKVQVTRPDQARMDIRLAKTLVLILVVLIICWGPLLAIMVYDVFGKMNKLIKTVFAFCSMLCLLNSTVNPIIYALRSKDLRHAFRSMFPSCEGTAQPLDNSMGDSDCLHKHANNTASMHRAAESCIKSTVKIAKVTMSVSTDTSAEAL
Assay: Mouse brain competition binding assay, [3H]CP55940 displacement
Details: mouse brain membranes, [3H]CP55940 0.7 nM; read-out: Ki (nM) [affinity] Mouse Brain [3H]CP55940 Displacement
observation.type: Ki (nM)
The reply should be a number in nM, with the unit left off.

// known answers, use as guide
{"smiles.text": "COc1cccc(CC(=O)c2nn(-c3ccc(Cl)cc3Cl)c(-c3ccc(Br)cc3)c2C)c1", "unit.name": "nM", "Ki": 19.7}
{"smiles.text": "Cc1c(C(=O)c2cccc(OC(F)(F)F)c2)nn(-c2ccc(Cl)cc2Cl)c1-c1ccc(Cl)cc1", "unit.name": "nM", "Ki": 26.7}
{"smiles.text": "Cc1c(C(=O)Cc2ccccc2)nn(-c2ccc(Cl)cc2Cl)c1-c1ccc(Cl)cc1", "unit.name": "nM", "Ki": 24.2}

Q: # get_value(readout='Ki', item= "Cc1ccc(CC(=O)c2nn(-c3ccc(Cl)cc3Cl)c(-c3ccc(Br)cc3)c2C)cc1" )
Result: 27.1
